experimentalDetails: Liver microsome stability
Type: in vitro ADME
conditionDescription: human liver microsomes 0.25 mg/mL, 1 μM compound, 37° C., 30 minutes, NADPH
assayReadout: Human (%) amount of substrate remaining after the reaction
Numbers only, in %.

smilesrepr=Cn1ccc2ccc(NN=C(C#N)C#N)cc2c1=O valueunits=% value=27
smilesrepr=CC(C)n1c(=O)n(C2CC2)c2ncc(NN=C(C#N)C#N)cc21 valueunits=% value=84.6
smilesrepr=CC(C)n1c(=O)oc2cc(NN=C(C#N)C#N)ccc21 valueunits=% value=98.1

Provide each entry's Human (%) amount of substrate remaining after the reaction from the list below.
1. Cn1c(=O)sc2cc(NN=C(C#N)C#N)ccc21
2. CC(C)n1c(=O)sc2cc(NN=C(C#N)C#N)ccc21

## Result
98.3
85.1

Provide each entry's Human (%) amount of substrate remaining after the reaction from the list below.
1. N#CC(C#N)=NNc1ccc2c(c1)oc(=O)n2C(F)F
2. COc1cc(NN=C(C#N)C#N)cc2c1n(C)c(=O)n2C
3. CC(C)n1c(=O)n(C2CC2)c2ccc(NN=C(C#N)C#N)cc21
4. Cn1c(=O)n(C)c2cc(NN=C(C#N)C#N)ccc21
5. CCn1c(=O)n(C(C)C)c2ncc(NN=C(C#N)C#N)cc21
6. CC(C)n1ccc2c(NN=C(C#N)C#N)cccc2c1=O
7. N#CC(C#N)=NNc1ccc2c(c1)sc(=O)n2C(F)F

## Result
73.9
93.2
81.7
80.6
85.5
94.2
99.7

Provide each entry's Human (%) amount of substrate remaining after the reaction from the list below.
1. Cn1c(=O)n(C(F)F)c2cc(NN=C(C#N)C#N)ccc21
2. N#CC(C#N)=NNc1ccc2[nH]c(=O)oc2c1
3. CC(C)n1c(=O)n(C(F)F)c2cc(NN=C(C#N)C#N)ccc21
4. Cn1c(=O)n(C)c2c(Cl)cc(NN=C(C#N)C#N)cc21
5. Cc1cc2c(NN=C(C#N)C#N)cccc2c(=O)n1C
6. Cn1c(=O)oc2cc(NN=C(C#N)C#N)ccc21
7. CC(C)n1ccc2ccc(NN=C(C#N)C#N)cc2c1=O

## Result
1. 84.9
2. 74.2
3. 81.5
4. 96.1
5. 96
6. 98.9
7. 57.4

Provide each entry's Human (%) amount of substrate remaining after the reaction from the list below.
1. CC(C)n1c(=O)n(C(C)C)c2cc(NN=C(C#N)C#N)ccc21
2. CCn1c(=O)n(C)c2cc(NN=C(C#N)C#N)ccc21
3. CCn1c(=O)n(C)c2ccc(NN=C(C#N)C#N)cc21
4. Cn1ccc2c(NN=C(C#N)C#N)cccc2c1=O
5. CCn1c(=O)n(C)c2cc(NN=C(C#N)C#N)cnc21
6. N#CC(C#N)=NNc1ccc2c(c1)n(C(F)F)c(=O)n2C(F)F

## Result
83.1
95
98.7
98.1
96.7
88.2

Cited source: patent US12590066B2
